assay_target: T1, human chemokine (C-C motif) receptor 8 (CCR8) (human, UniProt P51685 1-355)
T1 construct: On human peripheral blood lymphocytes / PBMC (native) or on human CCR8 GFP-transfected Ba/F3 cells; also called hCCR8; human CCR8
T1 sequence (P51685 whole entry): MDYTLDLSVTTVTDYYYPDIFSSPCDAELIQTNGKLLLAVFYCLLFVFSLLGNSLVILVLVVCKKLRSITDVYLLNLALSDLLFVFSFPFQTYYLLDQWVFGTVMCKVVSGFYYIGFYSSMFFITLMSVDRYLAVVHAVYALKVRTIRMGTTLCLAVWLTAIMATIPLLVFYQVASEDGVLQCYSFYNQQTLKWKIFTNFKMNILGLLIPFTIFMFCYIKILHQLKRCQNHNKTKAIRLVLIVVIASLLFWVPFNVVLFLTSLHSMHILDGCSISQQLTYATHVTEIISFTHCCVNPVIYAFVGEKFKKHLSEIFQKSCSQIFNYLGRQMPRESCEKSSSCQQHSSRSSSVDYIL
assay_comment: flow cytometry blocking, PBMC CCR8+ CD4+ cells; competitor PE-AB13 (its MFI is read)
// reported % Blocking for each item listed
// units = %; emit number, no label

- AB2 (antibody, V domains shown, Hybridoma monoclonal; also called antibody 2; clone 2) VH: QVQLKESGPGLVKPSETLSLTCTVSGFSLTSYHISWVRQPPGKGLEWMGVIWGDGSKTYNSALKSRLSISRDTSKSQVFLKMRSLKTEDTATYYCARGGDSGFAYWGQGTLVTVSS VL: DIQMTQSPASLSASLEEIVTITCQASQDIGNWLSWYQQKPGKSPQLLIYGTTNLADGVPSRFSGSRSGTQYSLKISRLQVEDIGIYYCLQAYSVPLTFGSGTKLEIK: 8.25
- AB15 (antibody, V domains shown, Hybridoma monoclonal; also called antibody 15; clone 15) VH: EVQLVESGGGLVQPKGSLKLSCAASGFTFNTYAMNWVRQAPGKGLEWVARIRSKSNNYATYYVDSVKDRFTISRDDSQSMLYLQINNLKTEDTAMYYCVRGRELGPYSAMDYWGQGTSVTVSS VL: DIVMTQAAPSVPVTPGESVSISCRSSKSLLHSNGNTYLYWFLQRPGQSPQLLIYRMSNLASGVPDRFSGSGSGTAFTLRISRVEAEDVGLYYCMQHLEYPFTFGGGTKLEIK: -3.67

Would you kindly look at the next entry?
// query Which measured % Blocking value corresponds to AB14 (antibody, V domains shown, Hybridoma monoclonal; also called antibody 14; clone 14) VH: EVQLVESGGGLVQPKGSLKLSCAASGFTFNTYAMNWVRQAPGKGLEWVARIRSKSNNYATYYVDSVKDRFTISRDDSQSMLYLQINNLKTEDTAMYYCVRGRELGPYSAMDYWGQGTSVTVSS VL: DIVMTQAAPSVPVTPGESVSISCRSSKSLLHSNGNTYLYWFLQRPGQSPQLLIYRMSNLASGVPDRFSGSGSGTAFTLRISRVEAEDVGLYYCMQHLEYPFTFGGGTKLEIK ?
// result 38.4
